Tested on: Human T lymphocytic leukemia cell line: Jurkat
Method Summary: Tumor cell proliferation inhibition (CellTiter-Meiluncell luminescent cell viability assay)
Assay Conditions: 96 h, read-out: Inhibition Rate at 10 nM (%)
For each entry below, report its inhibition at 0.01 µM value.

Would you please look over these solved cases?
O=C1CCC(N2Cc3cc(CN4CC=C(c5cccs5)CC4)ccc3C2=S)C(=O)N1 (centres unmarked)
40 to 50%
Cc1cc(C2CCN(Cc3ccc4c(c3)CN(C3CCC(=O)NC3=O)C4=S)CC2)cs1 (centres unmarked)
-5 to 0%
O=C1CCC(N2Cc3c(CN4CCN(c5cccc(F)c5)CC4)cccc3C2=S)C(=O)N1 (centres unmarked)
20 to 30%

Each of the following entries comes with a recorded value; kindly state inhibition at 0.01 µM for each.
1. Nc1cccc2c1CN(C1CCC(=O)NC1=O)C2=O (centres unmarked) [lenalidomide, reference compound]
2. O=C1CCC(N2Cc3cc(CN4CCN(c5ccccc5)CC4)ccc3C2=S)C(=O)N1 (centres unmarked)
3. O=C1CCC(N2Cc3cc(CN4CCC(c5cccs5)CC4)ccc3C2=S)C(=O)N1 (centres unmarked)
4. O=C1CCC(N2Cc3cc(CN4CCC(c5ccsc5)CC4)ccc3C2=S)C(=O)N1 (centres unmarked)
5. O=C1CCC(N2Cc3cc(CN4CCN(Cc5ccccc5-c5ccc(Cl)cc5)CC4)ccc3C2=S)C(=O)N1 (centres unmarked)
6. O=C1CCC(N2Cc3cc(CN4CCN(c5cccc(F)c5F)CC4)ccc3C2=S)C(=O)N1 (centres unmarked)
7. O=C1CCC(N2Cc3cc(CN4CCC(c5cccc(F)c5Cl)CC4)ccc3C2=S)C(=O)N1 (centres unmarked)

Output:
1. 20 to 30%
2. 5 to 10%
3. 10 to 20%
4. -5 to 0%
5. 10 to 20%
6. 20 to 30%
7. -5 to 0%

// for each compound below, give its inhibition at 0.01 µM
1. O=C1CCC(N2Cc3cc(CN4CC=C(c5ccsc5)CC4)ccc3C2=S)C(=O)N1 (centres unmarked)
2. O=C1CCC(N2Cc3cc(CN4CCC(N(c5ccccc5)c5ccccn5)CC4)ccc3C2=S)C(=O)N1 (centres unmarked)
3. O=C1CCC(N2Cc3c(CN4CC=C(c5cccc(F)c5Cl)CC4)cccc3C2=S)C(=O)N1 (centres unmarked)

Output:
["50 to 60%", "30 to 40%", "20 to 30%"]

Quick batch: inhibition at 0.01 µM for everything below.
1. Cc1ccc(Sc2ccccc2N2CCN(Cc3cccc4c3CN(C3CCC(=O)NC3=O)C4=S)CC2)c(C)c1 (centres unmarked)
2. Nc1cccc2c1C(=O)N(C1CCC(=O)NC1=O)C2=O (centres unmarked) [pomalidomide, reference compound]
3. CC1(C)CCC(CN2CC3CCC(C2)N3Cc2cccc3c2CN(C2CCC(=O)NC2=O)C3=S)=C(c2ccc(Cl)cc2)C1 (centres unmarked)

Output:
0 to 5%
10 to 20%
30 to 40%

// input: 4 compounds below; output: inhibition at 0.01 µM for each
1. Cc1cc(C2=CCN(Cc3ccc4c(c3)CN(C3CCC(=O)NC3=O)C4=S)CC2)cs1 (centres unmarked)
2. O=C1CCC(N2Cc3cc(CN4CC=C(c5cccc(F)c5Cl)CC4)ccc3C2=S)C(=O)N1 (centres unmarked)
3. O=C1CCC(N2Cc3cc(CN4CC=C(c5ccoc5)CC4)ccc3C2=S)C(=O)N1 (centres unmarked)
4. O=C1CCC(N2Cc3cc(CN4CCC(c5cccc(F)c5F)CC4)ccc3C2=S)C(=O)N1 (centres unmarked)

Output:
1: 20 to 30%; 2: 50 to 60%; 3: 0 to 5%; 4: 5 to 10%

The reported numbers originate from patent EP4745135A1.
